Molecular target: CRX HD R90W (UniProt O43186 31-107, R90W)
Sequence (O43186 31-107 R90W): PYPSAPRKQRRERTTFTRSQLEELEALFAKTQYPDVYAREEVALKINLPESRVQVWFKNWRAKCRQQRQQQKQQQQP
Assay: BLI
readout type: Kd (nM)
Just the number please, in nM, no unit attached.

// sample Ret4 20-mer biotinylated (dsDNA) DNA 1: CAGGAGCTTAGGAGGGGGAG DNA 2: CTCCCCCTCCTAAGCTCCTG , its Kd was 900
